Source of measurements: ChEMBL document CHEMBL4130549

# reported MIC; entries follow
System: Enterobacteriaceae
protocol-notes: Antibacterial activity against NDM-1-producing Enterobacteriaceae after 16 to 20 hrs by broth microdilution method
Format: functional
Please state the value followed by its unit.

Worked set:
Item under review: CCCCCCCCCCN(CCCCCCCCCC)C(=O)[C@@H](N)CCCCN.Cl.Cl . Reported MIC? 4 µg/mL

Thanks! And CCCCCCCCN(CCCCCCCC)C(=O)[C@H](C)N.Cl ? 64 µg/mL

Others:
For CCCCCCCCN(CCCCCCCC)C(=O)[C@@H](N)CCCN=C(N)N.Cl.Cl.Cl , what is its reported MIC? 4 µg/mL

Now the same for CCCCCCCCCN(CCCCCCCCC)C(=O)[C@@H](N)CCCN=C(N)N.Cl.Cl.Cl 4 µg/mL

Do the same for CCCCCCCCCN(CCCCCCCCC)C(=O)[C@@H](N)CCCCN.Cl.Cl please 2 µg/mL
